Sourced from PubChem BioAssay AID818

- Assay Notes: primary screen for suppressors of beta-catenin knockout HCT116 cell growth, colon tumor, human (AID 818);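 note: 0% = Hyamine 1622 control at 20 µM and 100% = untreated cell control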
- Run Conditions: CellTiter-Glo, 60 h, at 10 µM, hits give low values
The campaign covered roughly 140,000 compounds. About 2,100 (1.5%) were called active. This excerpt belongs to a sample that is enriched for actives.
Measurement Name: viability (%)

[[record]]
compound = "O=C(COC(=O)c1cc([N+](=O)[O-])ccc1NCc1ccccc1)NC1CCCCC1"
value_units = "%"
measured_value = 45.6

[[record]]
compound = "COc1ccc(/C(C)=N/NC(=O)CCC(=O)Nc2ccc(Cl)cc2Cl)c(OC)c1"
value_units = "%"
measured_value = 91.2

[[record]]
compound = "CCN(/N=C/c1ccc(N(C)C)cc1)c1nc2ccccc2[nH]1"
value_units = "%"
measured_value = 87.6

[[record]]
compound = "COc1ccc(NC(=S)NCc2cccs2)c(OC)c1"
value_units = "%"
measured_value = 96

[[record]]
compound = "COc1ccc(C(=O)O/N=C(\\N)Cc2ccc(Cl)cc2Cl)cc1OC"
value_units = "%"
measured_value = 79.8

[[record]]
compound = "COc1ccc(-n2c(=S)[nH]c3sc4c(c3c2=O)CCc2ccccc2-4)cc1"
value_units = "%"
measured_value = 81

[[record]]
compound = "CC(=O)N1CCN(c2cccc(C)c2C)CC1"
value_units = "%"
measured_value = 99.9

[[record]]
compound = "Cc1ccc(-c2nc(-c3cccnc3)sc2CC(=O)Nc2ccc(C)c(Cl)c2)cc1"
value_units = "%"
measured_value = 58.3

[[record]]
compound = "c1ccc(C2CNCc3c2ccc2ccccc32)cc1 (stereo unspecified)"
value_units = "%"
measured_value = 11.3

[[record]]
compound = "COc1cccc2sc(NNC(=O)c3nc4ccccc4s3)nc12"
value_units = "%"
measured_value = 14.9

[[record]]
compound = "COC(=O)c1sc2ncccc2c1OCc1ccc(Cl)cc1Cl"
value_units = "%"
measured_value = 67.4

